Test system: S. aureus
Assay: Antibacterial susceptibility testing, IC90 determination with 10% human serum (STA + 10% HS)
Assay type: cell-based, Staphylococcus aureus
Conditions: Staphylococcus aureus, human serum at final concentration of 10%, read-out: STA + 10% HS (361.169) IC90
Description: The following bacteria were used: Staphylococcus aureus ATCC 29213, methicillin-resistant Staphylococcus aureus (MRSA) ATCC 700788 and Escherichia coli ATCC 35218. The bacteria used in this study were grown overnight in flasks containing 100 ml Mueller-Hinton broth (Difco cat. nr. 0757-17) in sterile de-ionized water, with shaking, at 37° C. Stocks were store at −70° C. until use. […]
Listed next: entries and their corresponding IC90.

Some compounds with known IC90 results, for comparison:
compound	IC90
N#Cc1cc(N)ncc1/C=C/C(=O)N1CC2C=C(c3ccccc3)CC2C1 (centres unmarked)	> 22.5 µg/mL
CC(C)C1Oc2cc(/C=C/C(=O)N3CC4C=C(c5nccs5)CC4C3)cnc2NC1=O (centres unmarked)	< 0.21 µg/mL
O=C(Nc1ccc(/C=C/C(=O)N2CC3C=C(c4ccccc4)CC3C2)cn1)c1ccccn1 (centres unmarked)	> 27.5 µg/mL
COc1nc(NC(C)=O)ccc1/C=C/C(=O)N1CC2C=C(c3ccccc3)CC2C1 (centres unmarked)	> 25.5 µg/mL
Cc1nc(NC(=O)c2cccnc2)ccc1/C=C/C(=O)N1CC2C=C(c3ccccc3)CC2C1 (centres unmarked)	> 28.4 µg/mL
COc1cncc(C(=O)Nc2ccc(/C=C/C(=O)N3CC4C=C(c5nccs5)CC4C3)cn2)c1 (centres unmarked)	< 0.23 µg/mL
O=C1Nc2ncc(/C=C/C(=O)N3CC4C=C(c5ccccc5)CC4C3)cc2CN2CCNCC12 (centres unmarked)	< 0.22 µg/mL
Cc1cncc(C(=O)Nc2ccc(/C=C/C(=O)N3CC4C=C(c5nccs5)CC4C3)cn2)c1 (centres unmarked)	< 0.22 µg/mL

In the following, a different compound is considered.
*Q* Notebook: pull reported IC90 for S. aureus, entry CC(C)C1Oc2cc(/C=C/C(=O)N3CC4C=C(c5ccncc5)CC4C3)cnc2NC1=O (centres unmarked)
*A* < 0.21 µg/mL

* * *

Test system: Staphylococcus aureus ATCC 29213
Assay: Antibacterial susceptibility testing, IC90 determination (STA)
Format: cell-based
Conditions: Staphylococcus aureus, ATCC29213, Staphylococcus aureus ATCC 29213, broth microdilution, resazurin; read-out: STA (361.159) IC90
In this section we review reported IC90 values for a set of molecules.

The cases that follow already have their IC90 on record.
molecule	IC90
Cc1cncc(C(=O)Nc2ccc(/C=C/C(=O)N3CC4C=C(c5nccs5)CC4C3)cn2)c1 (stereo not shown) [compound 6]	< 0.22 µg/mL
O=C1CNCc2cc(/C=C/C(=O)N3CC4C=C(c5ccccc5)CC4C3)cnc2N1 (stereo not shown) [Cpd. No. 38]	< 0.19 µg/mL
O=C1COc2cc(/C=C/C(=O)N3CC4C=C(c5ccccc5)CC4C3)cnc2N1 (stereo not shown) [compound 37]	< 0.19 µg/mL

Continue with the molecule presented below.
*Q* Any idea what its IC90 is? The molecule is O=C1CC2CCCCN2Cc2cc(/C=C/C(=O)N3C[C@@H]4CC(c5ccccc5)=C[C@@H]4C3)cnc2N1 (stereo partly shown) [compound 90]
*A* < 0.21 µg/mL

All values here come from patent US9315522B2.
